# measurement.description: Pharmacokinetics of 2-PMPA after i.n. administration in rats
# Assay type: in vivo
# test.conditions: male, Wistar, plasma, other: intranasal (i.n.); rat, 30 mg/kg i.n.; read-out: AUC0-t plasma
endpoint.label: AUC(0-t) (ng·h/mL)

> print(dat)
                                   compound  numeric.value
1  O=C(O)CCC(CP(=O)(O)O)C(=O)O (stereo not shown)          52300

###

# measurement.description: Pharmacokinetics of 2-PMPA after i.p. administration in rats
# Type: in vivo
# test.conditions: male, Wistar, cerebellum, ip; rat, 30 mg/kg i.p.; read-out: Brain tissue to plasma ratio (AUC0-t,brain/AUC0-t,plasma), cerebellum
endpoint.label: Kp

> print(dat)
                                   compound  endpoint.label  result
1  O=C(O)CCC(CP(=O)(O)O)C(=O)O (stereo not shown)              Kp  < 0.02

###

# measurement.description: Pharmacokinetics of 2-PMPA after i.p. administration in rats
# Format: in vivo
# test.conditions: male, Wistar, ip; rat, 30 mg/kg i.p., plasma; read-out: Peak plasma concentration (Cmax)
endpoint.label: Cmax (µg/mL)

> print(dat)
                                   compound  endpoint.label  numeric.value
1  O=C(O)CCC(CP(=O)(O)O)C(=O)O (stereo not shown) [2-PMPA, 2-(phosphonomethyl)-pentanedioic acid]            Cmax           49.5
